Attribution: the supplement of paper PMC9170038

- System: MS2 coat protein
- METHOD: apparent KD of MS2 coat protein; designed switch direction (-1 OFF switch, 1 ON switch): -1; higher = weaker reporter binding
- TEST CONTEXT: input ligand: FMN 200 uM
Entry flag: Criterion met if apparent KD of MS2 coat protein reaches 600 nM; Criterion not met if it does not.

Record excerpt, results attached:
CAAUGACAUGAGGAUCACCCAUGUGAGGAUAUGGAGCGCGACCGCGCGGUCGCGUACACCAGAAGGCGCAGGAA [1st #69] (Eterna round: R97, puzzle: Exclusion 1)    Criterion not met
AAGAUGCCAAAGGAUAUCGAAGGAGUGGCGCGGCGAGAAGGUUGGACAUGAGGAUCACCCAUGUGGUGGCUCCC [Usmaarri] (Eterna round: R97, puzzle: Exclusion 6)    Criterion met

Asked: Is the recorded value of apparent KD of MS2 coat protein equal to or greater than 600 nM for this sequence? ACGCGUGGCUAGGAUAUGCAGCUAUCUGGCCAGGCAGAAGGAGCCACAUGAGGAUCACCCAUGUGGUGAUCCUC [eternacac ex6r4 sub3] (Eterna round: R97, puzzle: Exclusion 6)
Given back: Criterion not met

Asked: Ok, now CAGGUGUAAGGAUAUACCGGAUGGUCCAAAGCUUGGCAAAGACAUGAGGAUCACCCAUGUAGAAGGUACGUCCG [Eternabot (Original) Solution 21] (Eterna round: R97, puzzle: Exclusion 2)
Given back: Criterion not met

Asked: Also UUCCUCAUAACAUGAGGAUCACCCAUGUAUUAUUUGAUAACUGAGGAUAUACUAAUAAUGUUUAUGUAGAAGGCAGAUACAGAU [JR_ExcNG3_Sub015] (Eterna round: R96, puzzle: Exclusion NG 3) ?
Given back: Criterion met

---

- System: MS2 coat protein
- METHOD: apparent KD of MS2 coat protein; higher = weaker reporter binding
- TEST CONTEXT: Eterna round: R107; input ligand: tryptophan 2.4 mM
// reported apparent KD of MS2 coat protein for each item listed
// return numeric value only (unit: nM, not printed)

# annotated cases, reported apparent KD of MS2 coat protein shown
AUGCCUAGUGGAAGGAGCGAGGGUCCUCUCAACAUGAGGAUCACCCAUGUUCUUUUGCACCCUCAGGUAGGUCGCCAUUGGGACA [Veanaris]    76
UGUAUGUGAUCUGAUACCAGAGUGACGCGAAAGCGAUAACCUGAGGAUCACCCUGGUAAACUCCCUUGGCAGCAGAUCGCAUACU    79.7
UGACAUUGCUGCGAUACCAGACAUGAGGAUCACCCAUGUGCCAAAUAAACGUACAUAAAUGUCCCUUGGCAGCGCAGCAAUGUCU [MAT - Exclusion Theophlline B - Mod of Eli - D29]    61
AAUUGGGUUGGUGAGGUGGUUGGAGGCGAUACCAGCGUGGAAACACGCCCUUGGCAGCGCCAGGACAUGAGGAUCACCCAUGUAA [Praha]    205
AAGGUGAUCCCAGAUACCAGCCUAACAUGAGGAUCACCCAUGUUUGGGACGAAAGUCCCAGGCCCUUGGCAGCUGGGUUGCCAAG [SSTheo B #17]    185

In the following, a different sequence is considered.
Asked: # apparent KD of MS2 coat protein lookup, item CUGGCAGGAUGAUCCGCUGUCAGGGCUGAUACCAGCCACGAAAGUGGCCCUUGGCAGCAGCAAACAUGAGGAUCACCCAUGUAAA [(T)''-(M)'-(T)'-(Theo)-(Ms2)_Design2]
Given back: 108
